Molecular target: T1, human LIGHT (TNFSF14), full length, membrane-bound (214E allele) (human, UniProt O43557 1-240)
T1 construct: also called membrane LIGHT; human membrane LIGHT
T1 sequence (O43557 whole entry K214E): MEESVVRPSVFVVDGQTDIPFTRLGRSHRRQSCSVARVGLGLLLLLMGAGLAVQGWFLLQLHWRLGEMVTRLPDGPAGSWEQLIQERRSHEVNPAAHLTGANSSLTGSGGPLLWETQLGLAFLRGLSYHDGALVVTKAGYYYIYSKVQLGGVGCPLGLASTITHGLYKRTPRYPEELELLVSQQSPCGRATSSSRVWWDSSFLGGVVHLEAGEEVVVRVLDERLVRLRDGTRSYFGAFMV
Experiment: DcR3-His (1 nM) competition, EL4-LIGHT, flow cytometry; 11.1 nM
Rule: DcR3-His binding, % of irrelevant mAb of 80% or more gives condition met; anything lower gives condition not met.

INSERT INTO assay_data (binder, discrete_label) VALUES
  ('3D12 (antibody, human IgG4, V domains shown, chimeric: mouse variable domains on human IgG4 HC (S-to-P and L-to-E at 248) and human CL; also called Parental 3D12; 3D12 chimeric) VH: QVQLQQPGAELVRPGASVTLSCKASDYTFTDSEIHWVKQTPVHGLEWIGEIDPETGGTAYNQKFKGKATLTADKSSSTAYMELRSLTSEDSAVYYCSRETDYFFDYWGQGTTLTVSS VL: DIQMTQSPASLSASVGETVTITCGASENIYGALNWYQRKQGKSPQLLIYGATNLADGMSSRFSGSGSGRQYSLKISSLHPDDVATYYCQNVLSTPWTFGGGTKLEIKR', 'condition not met'),
  ('2B11 (antibody, human IgG4, V domains shown, chimeric human IgG4 (S-to-P, L-to-E at 248), human CL; also called Parental 2B11) VH: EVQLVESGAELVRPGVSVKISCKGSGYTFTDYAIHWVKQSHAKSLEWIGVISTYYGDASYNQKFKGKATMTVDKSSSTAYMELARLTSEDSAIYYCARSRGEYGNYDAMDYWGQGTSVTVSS VL: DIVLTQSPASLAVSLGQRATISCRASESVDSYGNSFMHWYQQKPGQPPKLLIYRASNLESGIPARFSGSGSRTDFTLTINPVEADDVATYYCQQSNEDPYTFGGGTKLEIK', 'condition not met'),
  ('3E09 (antibody, V domains shown, chimeric human IgG4 (S-to-P, L-to-E at 248), human CL; also called Parental 3E09) VH: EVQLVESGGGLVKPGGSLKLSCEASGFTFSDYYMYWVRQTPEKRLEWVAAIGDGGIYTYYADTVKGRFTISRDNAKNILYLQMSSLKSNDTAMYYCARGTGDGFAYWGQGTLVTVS VL: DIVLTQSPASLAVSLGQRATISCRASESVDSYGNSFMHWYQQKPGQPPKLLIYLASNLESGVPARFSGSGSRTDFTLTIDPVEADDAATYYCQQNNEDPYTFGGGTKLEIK', 'condition not met'),
  ('2E08 (antibody, human IgG4, V domains shown, chimeric human IgG4 (S-to-P, L-to-E at 248), human CL; also called Parental 2E08) VH: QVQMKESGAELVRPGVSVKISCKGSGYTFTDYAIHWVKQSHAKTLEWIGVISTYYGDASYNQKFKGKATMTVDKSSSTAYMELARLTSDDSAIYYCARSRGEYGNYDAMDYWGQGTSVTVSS VL: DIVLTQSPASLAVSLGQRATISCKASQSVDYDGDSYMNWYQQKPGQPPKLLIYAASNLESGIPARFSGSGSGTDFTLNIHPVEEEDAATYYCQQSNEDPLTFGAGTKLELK', 'condition met');
